# Tested on: HEK-293T
# protocol: Cytotoxicity against human 293T cells after 48 hrs by MTT assay
# Assay type: cell-based

| compound.smiles | target.of.assay | IC50, µM |
| --- | --- | --- |
| Cc1ccc(-n2nc(COC(=O)COc3cc(O)c4c(=O)cc(-c5ccccc5)oc4c3)cc2-c2ccc(F)cc2)cc1 | HEK-293T | 265 |
| Cc1ccc(-n2nc(COC(=O)COc3cc(O)c4c(=O)cc(-c5ccccc5)oc4c3)cc2-c2ccc(C(F)(F)F)cc2)cc1 | HEK-293T | 212 |
| O=C(COc1cc(O)c2c(=O)cc(-c3ccccc3)oc2c1)OCc1cc(-c2ccc(F)cc2)n(-c2ccccc2)n1 | HEK-293T | 187 |
| O=C(COc1cc(O)c2c(=O)cc(-c3ccccc3)oc2c1)OCc1cc(-c2ccc(C(F)(F)F)cc2)n(-c2ccccc2)n1 | HEK-293T | 162 |
| COc1ccc(-c2cc(COC(=O)COc3cc(O)c4c(=O)cc(-c5ccccc5)oc4c3)nn2-c2ccc(Cl)cc2)cc1 | HEK-293T | 290 |
